- Test system: Salmonella typhi
- experimental-protocol: Agar well diffusion, zone of inhibition
- Format: cell-based
- reported-conditions: Salmonella enterica, TYPHI, 24 h
measured-property: zone of inhibition at 100 µg/mL (mm)
Give the quantity in mm, number only.

Example entries begin here.
{"molecule": "O=c1c(O)c(-c2ccc(O)cc2O)oc2cc(O)cc(O)c12", "measured-property": "zone of inhibition at 100 µg/mL", "quantitative-readout": 16}
{"molecule": "Oc1cc(O)cc(O)c1", "measured-property": "zone of inhibition at 100 µg/mL", "quantitative-readout": 12}

May I ask what zone of inhibition at 100 µg/mL has been recorded for C[C@@H](O)[C@H]1C(=O)N2C(C(=O)O)=C(SCCN=CN)C[C@H]12 [Imipenem, reference compound] ?
33

May I ask what zone of inhibition at 100 µg/mL has been recorded for "CCCCCCc1ccccc1" ?
7.4
